Reported inhibition values are given for each entry in this list.
Biological target: Group 3 secretory phospholipase A2 (Homo sapiens) (UniProt Q9NZ20)
Sequence (Q9NZ20 whole entry, looked up): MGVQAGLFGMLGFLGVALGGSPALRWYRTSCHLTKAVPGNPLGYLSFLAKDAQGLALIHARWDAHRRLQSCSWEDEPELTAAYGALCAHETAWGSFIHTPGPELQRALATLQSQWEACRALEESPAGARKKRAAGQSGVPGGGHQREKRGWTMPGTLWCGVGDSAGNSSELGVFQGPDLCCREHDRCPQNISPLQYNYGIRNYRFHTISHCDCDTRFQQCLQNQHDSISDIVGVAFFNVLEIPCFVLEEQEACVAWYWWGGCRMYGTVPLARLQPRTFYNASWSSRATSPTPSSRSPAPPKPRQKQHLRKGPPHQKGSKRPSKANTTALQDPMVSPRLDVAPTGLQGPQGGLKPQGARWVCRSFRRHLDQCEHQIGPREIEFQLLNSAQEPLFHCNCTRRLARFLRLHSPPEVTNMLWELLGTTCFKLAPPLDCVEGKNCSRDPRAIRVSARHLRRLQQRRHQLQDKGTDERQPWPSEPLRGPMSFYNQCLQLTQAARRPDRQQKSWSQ
Test: human group III sPLA2 inhibitors, primary screen, biochemical, QFRET, BODIPY PC-A2 liposome substrate (AID 743126);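 note: 0% = median of test compound wells and 100% = no enzyme DMSO wells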
Conditions: QFRET BODIPY PC-A2 liposome hydrolysis, fluorescence; at 12.2 µM; stronger effect = higher value
Hit rate of the full screen: of about 370,000 compounds, about 2,100 (0.57%) were called active. Shown is part of a subset that was picked to be rich in actives.
// return numeric value only (unit: %, not printed)

>>> df
                                   molecule  measurement_unit  assay_value
0  CC(NCc1ccco1)C(=O)N1CCCCC1 (configuration not stated)                 %          3.8
1  CC(C)(C)NC(=O)Cn1c(SCC(=O)Nc2nccs2)nc2ccccc21                 %         3.98
2  COc1ccc(CCNC(=O)CSc2nc3c([nH]2)c(=O)n(C)c(=O)n3C)cc1                 %         5.11
3     COc1ccccc1-c1cnn2c(N3CCOCC3)cc(C)nc12                 %         17.5
4  CCC(c1nnc(SCC(=O)NNC(=O)c2ccccc2)n1Cc1ccccc1)N(C)C (configuration not stated)                 %        -0.56
5  COC(=O)[C@H](C(C)C)N(CCc1cn(Cc2ccccc2)nn1)S(=O)(=O)c1ccc(F)cc1Br                 %        -2.33
6        CCOC(=O)C(=Cc1ccccc1)C(=O)c1ccccc1                 %         8.51
7          CCOC(=O)NC(=O)/C(C#N)=C\c1ccccc1                 %         22.2

Reported inhibition for Group 3 secretory phospholipase A2 (Homo sapiens) (UniProt Q9NZ20), given COP(=O)(O)CNC(=O)OCc1ccccc1 ? 2.13

Reported inhibition for Group 3 secretory phospholipase A2 (Homo sapiens) (UniProt Q9NZ20), given O=S1(=O)c2c(cccc2N2CC[C@H](O)C2)O[C@@H]2CCN1C2 ? 4.99

Reported inhibition for Group 3 secretory phospholipase A2 (Homo sapiens) (UniProt Q9NZ20), given Cc1ccc(-c2csc(NNC(=O)c3ccccc3)n2)cc1 ? 41.2

Reported inhibition for Group 3 secretory phospholipase A2 (Homo sapiens) (UniProt Q9NZ20), given O=C(Nc1ccc(Br)cc1)OCCN1C(=O)CCC12CCC(c1ccccc1)CC2 (configuration not stated) ? -1.44

====

Target: Group 3 secretory phospholipase A2 (Homo sapiens) (UniProt Q9NZ20)
Experiment: human group III sPLA2 inhibitors, primary screen, biochemical, QFRET, BODIPY PC-A2 liposome substrate (AID 743126);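 note: 0% = median of test compound wells and 100% = no enzyme DMSO wells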
Conditions: QFRET BODIPY PC-A2 liposome hydrolysis, fluorescence; at 12.2 µM; stronger effect = higher value
About 2,100 (0.57%) of roughly 370,000 compounds were called active. Shown is part of a subset that was picked to be rich in actives.
Measured Attribute: inhibition (%)
// return numeric value only (unit: %, not printed)

Look up inhibition: CC(C)c1ccc(Nc2nnc(SCC(=O)c3nnc(-c4ccccc4)o3)s2)cc1 22.6
